Data origin: the supplement of paper PMC6757056

B1: library; a variant is named by its letters at N, in order (parent)
chain: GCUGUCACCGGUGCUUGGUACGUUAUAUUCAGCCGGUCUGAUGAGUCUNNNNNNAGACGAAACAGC

- Variants of: B1
- Assay summary: normalized RNA/DNA level without ligand (relative to sTRSVctl = 100) (log10 (% of sTRSVctl)); HEK293T overexpressing SLC46A1; higher = less ribozyme self-cleavage, higher mRNA level
- Test parameters: without (6R,S)-folinic acid; ligand present: no
Metric: normalized RNA/DNA level without ligand (log10)
# print the numeric value only

Which normalized RNA/DNA level without ligand (log10) value belongs to `CAUCGA` ? 2.05

Please report the recorded normalized RNA/DNA level without ligand (log10) for `CAUUAG` . 1.94

Consider the variant shown here: `UGGAGC` What is its recorded normalized RNA/DNA level without ligand (log10)? 2

May I ask what normalized RNA/DNA level without ligand (log10) has been recorded for `CUGCCU` ? 2.03

I'd like to know its normalized RNA/DNA level without ligand (log10). The variant in question is `CGUUCU` 2.07

Dear colleague, I am looking for the recorded normalized RNA/DNA level without ligand (log10) of the following variant: `CCAAAA` 1.97

Form field: reported normalized RNA/DNA level without ligand (log10) of `UGUUAA` 1.92

Consider the variant `CCACGC` and give its measured normalized RNA/DNA level without ligand (log10). 2.01

Can you share its normalized RNA/DNA level without ligand (log10)? I mean this variant: `CCAUGU` 2.03

State the recorded normalized RNA/DNA level without ligand (log10) for this entry: `GAGGUU` 1.99

Which value of normalized RNA/DNA level without ligand (log10) has been reported for `CAUUGC` in the records? 2.02

Endpoint output: normalized RNA/DNA level without ligand (log10) of `CGAAAC` . Value? 1.98

Bench note: what normalized RNA/DNA level without ligand (log10) did `UACUGU` show? 1.94

Look at this variant and give its reported normalized RNA/DNA level without ligand (log10). `UUCAUG` 1.86

Given `AUCGAU` , state its recorded normalized RNA/DNA level without ligand (log10). 1.98

I would be grateful if you could share the reported normalized RNA/DNA level without ligand (log10) for `GUGCCC` . 2.03

Can you share its normalized RNA/DNA level without ligand (log10)? I mean this variant: `UGUCAG` 1.77

Would you kindly share the measured normalized RNA/DNA level without ligand (log10) for `UUGGUA` ? 1.92

For the variant `AAUGAG` , what normalized RNA/DNA level without ligand (log10) is on record? 1.78

I'd like to know its normalized RNA/DNA level without ligand (log10). The variant in question is `CUUGCA` 2.02

I am curious: what normalized RNA/DNA level without ligand (log10) value has been reported for `GCCAGU` ? 2.06

If you can, please state the reported normalized RNA/DNA level without ligand (log10) value of `AACCGC` . 2.04

If you can, please state the reported normalized RNA/DNA level without ligand (log10) value of `GCAACG` . 1.98

Can you share its normalized RNA/DNA level without ligand (log10)? I mean this variant: `ACACGA` 2

Field request: normalized RNA/DNA level without ligand (log10) | item: `GAACUG` 1.97

Fill blank: measured normalized RNA/DNA level without ligand (log10) of the variant `UGGGUA` is ____. 1.89

Entry `UUCUAC` has what normalized RNA/DNA level without ligand (log10)? 2.03

Sample `UCGCUU` — what was its normalized RNA/DNA level without ligand (log10)? 2.03

Reported normalized RNA/DNA level without ligand (log10), variant `UCCCGU` : ____ 2.04

Reported normalized RNA/DNA level without ligand (log10), variant `CCUUAU` : ____ 2.02

Would you mind telling me what normalized RNA/DNA level without ligand (log10) value was observed for `AAGUUG` ? 1.91

For the variant shown here, `UCAUGG` , give the reported normalized RNA/DNA level without ligand (log10). 1.95

For the variant `CCCUUA` , what normalized RNA/DNA level without ligand (log10) is on record? 2.07

Please give the measured normalized RNA/DNA level without ligand (log10) for this variant: `GUUGUU` 2.03

Query: normalized RNA/DNA level without ligand (log10); subject: `GGCAAG` 2.03

// lookup normalized RNA/DNA level without ligand (log10) for `GGUAGU` 1.99

For the variant shown here, `UAUUUU` , give the reported normalized RNA/DNA level without ligand (log10). 2.01

Given `CUCGUG` , state its recorded normalized RNA/DNA level without ligand (log10). 1.99

Can you share its normalized RNA/DNA level without ligand (log10)? I mean this variant: `ACACAU` 1.97

Value lookup for normalized RNA/DNA level without ligand (log10); key = `GGGUUU` 2.03

Name the reported normalized RNA/DNA level without ligand (log10) value associated with the variant `CUUUAG` 1.97

For the variant `UGGUAG` , what normalized RNA/DNA level without ligand (log10) is on record? 1.58

Fill blank: measured normalized RNA/DNA level without ligand (log10) of the variant `CCCUGG` is ____. 2.1

Given the entry `CGGCUU` , report its measured normalized RNA/DNA level without ligand (log10). 2.04

What value of normalized RNA/DNA level without ligand (log10) has been recorded for this entry: `AACUCC` 2.06

Form field: reported normalized RNA/DNA level without ligand (log10) of `GCUAGA` 2

So what does the record say about normalized RNA/DNA level without ligand (log10) for `AUCUCA` ? 2.02

Looking for the measured normalized RNA/DNA level without ligand (log10) of `CAGCCC` , can you help? 2.08

If you can, please state the reported normalized RNA/DNA level without ligand (log10) value of `GAAGCC` . 2.02

Name the recorded normalized RNA/DNA level without ligand (log10) for `GAUAGC` . 1.96

Item `GACUUC` has what recorded normalized RNA/DNA level without ligand (log10)? 2.08

What measured normalized RNA/DNA level without ligand (log10) goes with `GAAACA` ? 2.02

Returns the measured normalized RNA/DNA level without ligand (log10) for the input variant. Input: `AGCUUA` 2

// lookup normalized RNA/DNA level without ligand (log10) for `GAGAAG` 1.91

# get_value(readout='normalized RNA/DNA level without ligand (log10)', item= `AAUGGG` ) 1.8

What does the data say about its normalized RNA/DNA level without ligand (log10)? Entry: `GACCAG` 2

Given `UCUCCG` , state its recorded normalized RNA/DNA level without ligand (log10). 1.96

I am curious: what normalized RNA/DNA level without ligand (log10) value has been reported for `UCCCAU` ? 2

Name the recorded normalized RNA/DNA level without ligand (log10) for `CUCGAA` . 1.99

Quick check: normalized RNA/DNA level without ligand (log10) of `CUAAAA` ? 1.98

For `CAAAAU` , what is its reported normalized RNA/DNA level without ligand (log10)? 1.96

What value of normalized RNA/DNA level without ligand (log10) has been reported for the following variant? `AUCAAC` 2.03

Entry under review: `ACGGAA` . Reported normalized RNA/DNA level without ligand (log10)? 1.97

Quick one: normalized RNA/DNA level without ligand (log10) for `CGAACG` ? 2.03

normalized RNA/DNA level without ligand (log10) for `CAGGAG` ? 1.92

Entry under review: `GCAGAU` . Reported normalized RNA/DNA level without ligand (log10)? 1.96

Which normalized RNA/DNA level without ligand (log10) value belongs to `UGCACG` ? 1.81

What value of measured normalized RNA/DNA level without ligand (log10) is listed for `CUGUGA` ? 2.03

Requested read-out: normalized RNA/DNA level without ligand (log10). Entry: `UCACAA` 1.98

Query (variant): `CAUGCG` ; field requested: normalized RNA/DNA level without ligand (log10) 2.01

What normalized RNA/DNA level without ligand (log10) value was documented for this variant, `CUACCA` ? 2.06

What value of measured normalized RNA/DNA level without ligand (log10) is listed for `CGGGCA` ? 2.06

Return reported normalized RNA/DNA level without ligand (log10); argument: `GGUUUU` 2

Quick one: normalized RNA/DNA level without ligand (log10) for `AGCAUG` ? 1.96

Looking for the measured normalized RNA/DNA level without ligand (log10) of `ACGUUG` , can you help? 1.94

What does the data say about its normalized RNA/DNA level without ligand (log10)? Entry: `GACGCC` 2.04

Need normalized RNA/DNA level without ligand (log10), item `AUAGAC` 1.97

What measured normalized RNA/DNA level without ligand (log10) goes with `GUUGAA` ? 1.95

Report normalized RNA/DNA level without ligand (log10) for `GAGAAU` please. 1.97

Fill in: normalized RNA/DNA level without ligand (log10) of `AUUAGG` is ___ 1.9

Which normalized RNA/DNA level without ligand (log10) value is on record for `AUGCGG` ? 1.94

Returns the measured normalized RNA/DNA level without ligand (log10) for the input variant. Input: `GAUAUU` 2.01

// normalized RNA/DNA level without ligand (log10) lookup, key: `AGGAAC` 2

Sample `GAGCAG` — what was its normalized RNA/DNA level without ligand (log10)? 1.96

Tell me the measured normalized RNA/DNA level without ligand (log10) of `CGGGUA` , please. 1.94

Given the variant `UGUAGG` , what is its reported normalized RNA/DNA level without ligand (log10)? 1.61

Fill blank: measured normalized RNA/DNA level without ligand (log10) of the variant `GAGCCU` is ____. 2.08

I am curious: what normalized RNA/DNA level without ligand (log10) value has been reported for `GAAAUA` ? 2.01

So what does the record say about normalized RNA/DNA level without ligand (log10) for `GGUUCC` ? 2.03

Looking for the measured normalized RNA/DNA level without ligand (log10) of `GAUAAG` , can you help? 1.92

normalized RNA/DNA level without ligand (log10) lookup needed for `UAUACG` , thanks. 1.76
